assay: 28-day repeat-dose oral toxicokinetics; type: in vivo, Bama minipig; details: male, Bama, minipig, plasma, po, 1 g/kg, 1.0 g/kg/dose BID (2.0 g/kg/day, NOAEL), Day 28, Male; read-out: AUC0-24
MEASURE: AUC(0-t) (µg·h/mL)
One number for each entry, in µg·h/mL.

Per the record, OC[C@@H](O)[C@@H](O)[C@@H](O)CO [ribitol, (2R,3s,4S)-Pentane-1,2,3,4,5-pentol] has AUC(0-t) of 2560

* * *

test: 7-day repeat-dose oral toxicokinetics; format: in vivo, CD-1 mouse; settings: male, CD-1, mouse, plasma, po, 0.5 g/kg, 0.5 g/kg/dose BID, Day 1, M
MEASURE: Tmax (h)
One number for each entry, in h.

Record `OC[C@@H](O)[C@@H](O)[C@@H](O)CO` , field Tmax: 6.5

* * *

assay: 7-day repeat-dose oral toxicokinetics; assay type: in vivo, Bama minipig; conditions: male, Bama, minipig, plasma, po, 0.1 g/kg, 0.1 g/kg BID, Day 7, M
MEASURE: Tmax (h)
One number for each entry, in h.

Entry `OC[C@@H](O)[C@@H](O)[C@@H](O)CO` — recorded Tmax = 3.5

* * *

assay: Single intravenous dose PK; type: in vivo, Bama minipig; settings: Bama, minipig, plasma; IV 100 mg/kg, female
MEASURE: AUC(0-inf) (µg·h/mL)
One number for each entry, in µg·h/mL.

response.value for `OC[C@@H](O)[C@@H](O)[C@@H](O)CO` (field: AUC(0-inf)) = 210

* * *

test: 7-day repeat-dose oral toxicokinetics; assay type: in vivo, Bama minipig; settings: male, Bama, minipig, plasma, po, 0.1 g/kg, 0.1 g/kg BID, Day 1, M
MEASURE: Cmax (ng/mL)
Numbers only, in ng/mL.

For this molecule ( `OC[C@@H](O)[C@@H](O)[C@@H](O)CO` ), measured Cmax is 35500

* * *

experiment: 28-day repeat-dose oral toxicokinetics; format: in vivo, Bama minipig; details: female, Bama, minipig, plasma, po, 0.1 g/kg, 0.1 g/kg/dose BID, Day 1, Female; median (range)
MEASURE: Tmax (h)
Answers are plain numbers, in h.

Reported Tmax ( OC[C@@H](O)[C@@H](O)[C@@H](O)CO [ribitol, (2R,3s,4S)-Pentane-1,2,3,4,5-pentol] ) = 5

* * *

assay: in vivo; set-up: species or system mouse; conditions: CD-1, mouse, po, 2 g/kg/day, AUC(0-24), calculated exposure
MEASURE: AUC(0-t)
Write the figure, then the unit, nothing else.

# AUC(0-t) (molecule: `OC[C@@H](O)[C@@H](O)[C@@H](O)CO` ) is 727 µg·h/mL

* * *

test: 28-day repeat-dose oral toxicokinetics; format: in vivo, Bama minipig; conditions: female, Bama, minipig, plasma, po, 0.3 g/kg, 0.3 g/kg/dose BID, Day 1, Female; mean ± SD; read-out: Cmax
MEASURE: Cmax (µg/mL)
Numbers only, in µg/mL.

Memo: `OC[C@@H](O)[C@@H](O)[C@@H](O)CO` , reported Cmax: 98.4

* * *

Experiment: Single intravenous dose PK
Type: in vivo, CD-1 mouse
Conditions: CD-1, mouse, plasma; IV 10 mg/kg, male; read-out: Vss
Description: The PK of ribitol was studied in male and female CD-1 mice following three IV doses at 10, 30, and 100 mg/kg (n=3/dose/sex). Blood samples were collected serially up to 24 hours post dose.
MEASURE: Vd (L/kg)
One number for each entry, in L/kg.

Just so you know, measured Vd for `OC[C@@H](O)[C@@H](O)[C@@H](O)CO` came out at 1.49

* * *

Assay: Single intravenous dose PK
Assay type: in vivo, Bama minipig
Conditions: Bama, minipig, plasma; IV 30 mg/kg, male; read-out: T1/2 (converted)
Procedure: The PK of ribitol was studied in 2 male and 2 female Bama minipigs following escalating IV doses levels using the same animals with a 48 hour washout period at 10 mg/kg (Day 1), 30 mg/kg (Day 3) and 100 mg/kg (Day 5). On each dosing day, blood samples were collected serially up to 24 hours post dose.
MEASURE: half-life (min)
One number for each entry, in min.

Quick note, half-life for `OC[C@@H](O)[C@@H](O)[C@@H](O)CO` landed at 31.1

* * *

Test: 28-day repeat-dose oral toxicokinetics
Assay type: in vivo, Bama minipig
Settings: female, Bama, minipig, plasma, po, 2 g/kg/day, 1.0 g/kg/dose BID (2.0 g/kg/day, NOAEL), Day 28, Female; read-out: Cmax
Experimental: Toxicokinetics of ribitol was evaluated as part of the 28-day toxicology study in male and female Bama minipig. […] Animals in control group were dosed for 28 days twice daily with the vehicle only (Purified Water). On Days 1 and 28, blood samples were collected at 0 (pre first dose), 0.5, 1, 2, 4, 6 (pre-second dose), 6.5, 7, 8, 10, 12, and 24 hours from all available animals.
MEASURE: Cmax (µg/mL)
Numbers only, in µg/mL.

So for OC[C@@H](O)[C@@H](O)[C@@H](O)CO [ribitol, (2R,3s,4S)-Pentane-1,2,3,4,5-pentol] , the logged Cmax turned out to be 281

* * *

experiment: Single intravenous dose PK; type: in vivo, CD-1 mouse; conditions: CD-1, mouse, plasma; IV 10 mg/kg, male
MEASURE: AUC(0-inf) (ng·h/mL)
Answers are plain numbers, in ng·h/mL.

Reported AUC(0-inf) of `OC[C@@H](O)[C@@H](O)[C@@H](O)CO` : 7320

* * *

assay: 28-day repeat-dose oral toxicokinetics; type: in vivo, CD-1 mouse; conditions: both sexes, CD-1, mouse, plasma, po, 0.5 g/kg, 0.5 g/kg/dose BID, Day 1, Mean of sexes
MEASURE: Cmax (µg/mL)
Numbers only, in µg/mL.

For this compound ( OC[C@@H](O)[C@@H](O)[C@@H](O)CO [ribitol, (2R,3s,4S)-Pentane-1,2,3,4,5-pentol] ), measured Cmax is 141

* * *

experiment: 7-day repeat-dose oral toxicokinetics; assay type: in vivo, CD-1 mouse; conditions: female, CD-1, mouse, plasma, po, 1.5 g/kg, 1.5 g/kg/dose BID, Day 7, F
MEASURE: Cmax (µg/mL)
Give bare numbers, in µg/mL.

Documented Cmax of OC[C@@H](O)[C@@H](O)[C@@H](O)CO [ribitol, (2R,3s,4S)-Pentane-1,2,3,4,5-pentol] : 266

* * *

test: 7-day repeat-dose oral toxicokinetics; type: in vivo, CD-1 mouse; conditions: male, CD-1, mouse, plasma, po, 0.5 g/kg, 0.5 g/kg/dose BID, Day 7, M; read-out: AUC0-24
MEASURE: AUC(0-t)
Answer with the value and then the unit.

The compound listed as `OC[C@@H](O)[C@@H](O)[C@@H](O)CO` shows AUC(0-t) equal to 170 µg·h/mL

* * *

test: 7-day repeat-dose oral toxicokinetics; format: in vivo, CD-1 mouse; conditions: female, CD-1, mouse, plasma, po, 1 g/kg, 1.0 g/kg/dose BID, Day 7, F; read-out: AUC0-24
MEASURE: AUC(0-t) (µg·h/mL)
Numbers only, in µg·h/mL.

AUC(0-t) reading for `OC[C@@H](O)[C@@H](O)[C@@H](O)CO` : 319

* * *

test: 28-day repeat-dose oral toxicokinetics; type: in vivo, CD-1 mouse; settings: female, CD-1, mouse, plasma, po, 1 g/kg, 1.0 g/kg/dose BID, Day 1, Female
MEASURE: Cmax (µg/mL)
Numbers only, in µg/mL.

// field: Cmax; key: OC[C@@H](O)[C@@H](O)[C@@H](O)CO [ribitol, (2R,3s,4S)-Pentane-1,2,3,4,5-pentol] ; value = 227

* * *

experiment: Phase 1 SAD/MAD study in healthy subjects; format: in vivo, human; conditions: human, in vivo, oral, 9 g, steady state, 6 days, 9 g q 12 h (total 18 g/day)
MEASURE: Tmax (min)
Answers are plain numbers, in min.

For record OC[C@@H](O)[C@@H](O)[C@@H](O)CO [ribitol, (2R,3s,4S)-Pentane-1,2,3,4,5-pentol] the listed Tmax is 30.1

* * *

Test: 7-day repeat-dose oral toxicokinetics
Type: in vivo, Bama minipig
Settings: female, Bama, minipig, plasma, po, 0.3 g/kg, 0.3 g/kg BID, Day 7, F; read-out: AUC0-24
Description: Toxicokinetics were evaluated as part of a 7-day oral repeat-dose dose range finding study in Bama minipigs. […] On Days 1 and 7, blood was taken for plasma TK at 0 (pre first dose), 0.5, 1, 2, 4, 6 (pre-second dose), 6.5, 7, 8, 10, and 24 hours post-first dose.
MEASURE: AUC(0-t) (µg·h/mL)
Answers are plain numbers, in µg·h/mL.

Recorded AUC(0-t) (molecule `OC[C@@H](O)[C@@H](O)[C@@H](O)CO` ): 784

* * *

assay: 7-day repeat-dose oral toxicokinetics; format: in vivo, Bama minipig; conditions: both sexes, Bama, minipig, plasma, oral, post first dose, Days 1 and 7, range
MEASURE: Tmax

Tmax measured on `OC[C@@H](O)[C@@H](O)[C@@H](O)CO` = 0.5 to 6.5 h

Hello, the source for this data is patent US20230364118A1, in case you need it.
